- assay.summary: Cytotoxicity (Huh-7)
- Type: cell-based
- settings: human, Huh-7 cells
readout.label: CC50 (µM)
Expressed in µM, but write only the number.

| chemical.structure | CC50 (µM) |
| --- | --- |
| COC(=O)N[C@H](C(=O)N1CCC[C@H]1c1nc(-c2ccc(Oc3ccc(OC)c(-c4c[nH]c([C@@H]5CCCN5C(=O)[C@@H](NC(=O)OC)C(C)C)n4)c3)cc2)c[nH]1)C(C)C | 1.66 |

[ask] Note down CC50 recorded for O=C([C@@H](O)c1ccccc1)N1CCC[C@H]1c1nc(-c2cccc(Oc3ccc(-c4cnc([C@@H]5CCCN5C(=O)[C@@H](O)c5ccccc5)[nH]4)cc3)c2)c[nH]1
[reply] 3.66
